Measured values drawn from patent US20060263802A1 for this set.

system: human monoclonal antibody CRJA; format: binding
Attribute measured: Binding of CRJA to linear peptide (PEPSCAN-ELISA signal)

Sequence entry | Assayed system | Numeric readout
RSLHSRVFPSGKCSG | human monoclonal antibody CRJA | 125
DPRYEESLHNPYPDY | human monoclonal antibody CRJA | 92
KLVPGFGKAYTIFNK | human monoclonal antibody CRJA | 73
RRLSHLRKLVPGFGK | human monoclonal antibody CRJA | 85

----------
test system: human monoclonal antibody CR57; type: binding
Label True when Binding of CR57 (10 μg/ml) to looped/cyclic peptide (PEPSCAN-ELISA signal) >= 100; otherwise False.

Sequence entry | Class label
WKMAGDPRYEESLHN | False
SPSVADLDPYDRSLH | False
PDYRWLRTVKTTKES | False
PTPDACRAAYNWKMA | True
YCSTNHDYTIWMPEN | False
RAAYNWKMAGDPRYE | True
ENYTNFVGYVTTTFK | False
AENYTNFVGYVTTTF | False
SRVFPSGKCSGVAVS | True
LAIKMNGFTCTGVVT | False
NWKMAGDPRYEESLH | False
TNSRGKRASKGSETC | True
DPRYEESLHNPYPDY | False
YILAIKMNGFTCTGV | False
ILDKLGPWSPIDIHH | False
PSGKCSGVAVSSTYC | False
HSRVFPSGKCSGVAV | True
AVSSTYCSTNHDYTI | True
TILDKLGPWSPIDIH | False
PIYTILDKLGPWSPI | False
ACRAAYNWKMAGDPR | True
PIDIHHLSCPNNLVV | False
GYVTTTFKRKHFRPT | True
NFVGYVTTTFKRKHF | False
LGPWSPIDIHHLSCP | False
TNFVGYVTTTFKRKH | False
SRGKRASKGSETCGF | False
WSPIDIHHLSCPNNL | False
KRKHFRPTPDACRAA | False
SLHNPYPDYRWLRTV | True
SGKCSGVAVSSTYCS | False
DLDPYDRSLHSRVFP | False
NNLVVEDEGCTNLSG | False
GPWSPIDIHHLSCPN | False
FTCTGVVTEAENYTN | True
SGFSYMELKVGYILA | False
PRLGMSCDIFTNSRG | False
NLSGFSYMELKVGYI | False
HLSCPNNLVVEDEGC | False
CSTNHDYTIWMPENP | False
AGDPRYEESLHNPYP | False
PRYEESLHNPYPDYR | False
MPENPRLGMSCDIFT | True
EDEGCTNLSGFSYME | False
LKVGYILAIKMNGFT | False
YRWLRTVKTTKESLV | False
YVTTTFKRKHFRPTP | True
PYPDYRWLRTVKTTK | False
GYILAIKMNGFTCTG | False
RTVKTTKESLVIISP | False
KTTKESLVIISPSVA | True
GVAVSSTYCSTNHDY | True
AYNWKMAGDPRYEES | False
CSGVAVSSTYCSTNH | False
DEGCTNLSGFSYMEL | False
TFKRKHFRPTPDACR | True
IISPSVADLDPYDRS | True
PYDRSLHSRVFPSGK | True
HFRPTPDACRAAYNW | False

----------
Entries and their Binding of CRJA (10 μg/ml) to looped/cyclic peptide (PEPSCAN-ELISA signal) values follow.
system: human monoclonal antibody CRJA; format: binding
Attribute measured: Binding of CRJA (10 μg/ml) to looped/cyclic peptide (PEPSCAN-ELISA signal)

Sequence entry | Numeric readout
TNFVGYVTTTFKRKH | 96
TNSRGKRASKGSETC | 104
HDYTIWMPENPRLGM | 97
DPYDRSLHSRVFPSG | 186
KHFRPTPDACRAAYN | 41
YEESLHNPYPDYRWL | 84
CTGVVTEAENYTNFV | 101
MAGDPRYEESLHNPY | 71
PWSPIDIHHLSCPNN | 91
NLVVEDEGCTNLSGF | 74
GFTCTGVVTEAENYT | 87
WLRTVKTTKESLVII | 78
GYILAIKMNGFTCTG | 72
KMNGFTCTGVVTEAE | 83
FVGYVTTTFKRKHFR | 102
GDPRYEESLHNPYPD | 90
LSCPNNLVVEDEGCT | 97
LVIISPSVADLDPYD | 117
NYTNFVGYVTTTFKR | 85

----------
system: human monoclonal antibody CRJA; format: binding
Attribute measured: Binding of CRJA (10 μg/ml) to looped/cyclic peptide (PEPSCAN-ELISA)

Sequence entry | Numeric readout
KLVPGFGKAYTIFNK | 71
DEIEHLVVEELVRKR | 106
PSKGCLRVGGRCHPH | 71
CLRVGGRCHPHVNGV | 111
TWVAMQTSNETKWCP | 84
SSLLQQHMELLESSV | 90
FNGIILGPDGNVLIP | 106
VPGFGKAYTIFNKTL | 87
LIPEMQSSLLQQHME | 91
LRLMDGTWVAMQTSN | 92
DFRSDEIEHLVVEEL | 93
AHYKSVRTWNEILPS | 104
TLMEADAHYKSVRTW | 89
KSVSFRRLSHLRKLV | 88
RKREECLDALESIMT | 129
LVNLHDFRSDEIEHL | 93
TIFNKTLMEADAHYK | 96
EADAHYKSVRTWNEI | 63
LYKSLKGACKLKLCG | 107
VNGVFFNGIILGPDG | 78
VDERGLYKSLKGACK | 96
LLESSVIPLVHPLAD | 91
FRSDEIEHLVVEELV | 94
ACKLKLCGVLGLRLM | 71
ETCGFVDERGLYKSL | 75
GVFFNGIILGPDGNV | 68
SVIPLVHPLADPSTV | 75
SVRTWNEILPSKGCL | 165
NKTLMEADAHYKSVR | 98
VFFNGIILGPDGNVL | 83
FVDERGLYKSLKGAC | 92
ILPSKGCLRVGGRCH | 97
QTSNETKWCPPDQLV | 106
LESSVIPLVHPLADP | 114
RRLSHLRKLVPGFGK | 96
KGCLRVGGRCHPHVN | 102
GLRLMDGTWVAMQTS | 100
RLMDGTWVAMQTSNE | 82
IEHLVVEELVRKREE | 112
VLIPEMQSSLLQQHM | 92
EILPSKGCLRVGGRC | 111
MTTKSVSFRRLSHLR | 79
NVLIPEMQSSLLQQH | 110
HPHVNGVFFNGIILG | 91
HLVVEELVRKREECL | 110
VRTWNEILPSKGCLR | 114
LSHLRKLVPGFGKAY | 93
LGPDGNVLIPEMQSS | 104
RCHPHVNGVFFNGII | 106
MEADAHYKSVRTWNE | 68
RLSHLRKLVPGFGKA | 106
PEMQSSLLQQHMELL | 78
GSETCGFVDERGLYK | 64
YTIFNKTLMEADAHY | 108
EECLDALESIMTTKS | 105
PGFGKAYTIFNKTLM | 94
LVHPLADPSTVFKDG | 108
SLLQQHMELLESSVI | 101
SKGCLRVGGRCHPHV | 71
SETCGFVDERGLYKS | 56
LGLRLMDGTWVAMQT | 97
NLHDFRSDEIEHLVV | 86
IILGPDGNVLIPEMQ | 107
GKRASKGSETCGFVD | 93
KSLKGACKLKLCGVL | 113
HMELLESSVIPLVHP | 106
SHLRKLVPGFGKAYT | 160
GIILGPDGNVLIPEM | 92

----------
Entries and their Binding of CR57 to linear peptide (PEPSCAN-ELISA signal) values follow.
system: human monoclonal antibody CR57; format: binding
Attribute measured: Binding of CR57 to linear peptide (PEPSCAN-ELISA signal)

Sequence entry | Numeric readout
WKMAGDPRYEESLHN | 69
IISPSVADLDPYDRS | 83
LKLCGVLGLRLMDGT | 918
IFTNSRGKRASKGSE | 77
VFFNGIILGPDGNVL | 55
ALESIMTTKSVSFRR | 97
PGFGKAYTIFNKTLM | 78
NWKMAGDPRYEESLH | 58
KVGYILAIKMNGFTC | 78
TCGFVDERGLYKSLK | 47
VLGLRLMDGTWVAMQ | 90
YKSVRTWNEILPSKG | 66
VPGFGKAYTIFNKTL | 58
MTTKSVSFRRLSHLR | 59
GIILGPDGNVLIPEM | 107
LHNPYPDYRWLRTVK | 79
SVIPLVHPLADPSTV | 72
TGVVTEAENYTNFVG | 85
ENPRLGMSCDIFTNS | 71
LYKSLKGACKLKLCG | 93
SYMELKVGYILAIKM | 65
TPDACRAAYNWKMAG | 92
LKGACKLKLCGVLGL | 340
HLVVEELVRKREECL | 82
KGACKLKLCGVLGLR | 181
WMPENPRLGMSCDIF | 88
